The values you see were collected from paper PMC5584254.

Target: Bcl-xL-Beclin 1 complex (Homo sapiens)
Construct: made in house
Sequence (Q07817 whole entry, one chain of several): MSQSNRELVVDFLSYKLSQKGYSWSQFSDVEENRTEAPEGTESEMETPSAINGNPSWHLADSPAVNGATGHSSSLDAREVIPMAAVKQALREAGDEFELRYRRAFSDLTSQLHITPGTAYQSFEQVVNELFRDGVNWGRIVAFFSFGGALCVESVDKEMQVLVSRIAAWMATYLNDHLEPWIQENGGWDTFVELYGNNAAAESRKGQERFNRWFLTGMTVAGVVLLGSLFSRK
Test: Concentration response FP reconfirmation of HTS hits
Format: binding
Conditions: read-out: Dose-response (% Inhibition) 10 μM
Counter-ions that a name gives are not always drawn.

>  <Molecule>
COc1cccc2c1C(=O)c1c(O)c3c(c(O)c1C2=O)C[C@@](O)(C(C)=O)C[C@@H]3O[C@H]1C[C@H](N)[C@H](O)[C@H](C)O1

>  <Unit Of Measure>
%

>  <inhibition at 10 µM>
33.4

$$$$
>  <Molecule>
CCCCCCCCCc1ccc(OCCOCCOCCOCCOCCOCCOCCOCCOCCO)cc1

>  <Unit Of Measure>
%

>  <inhibition at 10 µM>
6.2

$$$$
>  <Molecule>
C[n+]1cc2c3c(ccc2c2ccc4cc5c(cc4c21)OCO5)OCO3 [Compound A05, SANGUINARINE SULFATE]

>  <Unit Of Measure>
%

>  <inhibition at 10 µM>
-0.2

$$$$
>  <Molecule>
O=C1C(Cl)=C(Cl)C(=O)C(Cl)=C1Cl

>  <Unit Of Measure>
%

>  <inhibition at 10 µM>
19.4

$$$$
>  <Molecule>
CC[n+]1c(-c2ccccc2)c2cc(N)ccc2c2ccc(N)cc21 [Compound A12, HOMIDIUM BROMIDE]

>  <Unit Of Measure>
%

>  <inhibition at 10 µM>
5.5

$$$$
